Where these numbers come from: patent US12428386B2

tested-target: S1P5 (Homo sapiens, UniProt Q9H228)
Sequence (Q9H228 whole entry, species assumed): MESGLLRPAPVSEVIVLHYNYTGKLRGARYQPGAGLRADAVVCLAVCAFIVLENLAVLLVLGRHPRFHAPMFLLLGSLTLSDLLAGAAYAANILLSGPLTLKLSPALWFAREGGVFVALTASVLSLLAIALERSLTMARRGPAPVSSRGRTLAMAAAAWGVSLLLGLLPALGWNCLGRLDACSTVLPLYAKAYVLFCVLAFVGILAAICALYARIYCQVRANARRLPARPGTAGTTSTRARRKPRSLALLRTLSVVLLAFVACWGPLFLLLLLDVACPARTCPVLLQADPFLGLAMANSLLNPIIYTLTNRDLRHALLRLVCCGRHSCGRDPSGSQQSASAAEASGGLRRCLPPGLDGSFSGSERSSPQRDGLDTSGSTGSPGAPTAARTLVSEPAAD
protocol-summary: [35S]-GTPγS binding assay, CHO-S1P receptor membranes, S1P5
measurement-parameters: CHO-S1P receptor membrane
Recorded pEC50 by entry
API: returns pEC50 as number; meaning -log10 of concentration in mol/L.

Illustrative cases are given below, each with its answer.
molecule | pEC50
CCOC1=CCc2c1cccc2-c1noc(-c2ccc(OC(C)C)c(C#N)c2)n1 [compound 3] | 6.57
CC(C)OC1=CCc2c1cccc2-c1noc(-c2ccc(OC(C)C)c(C#N)c2)n1 [compound 4] | 6.82

// COC1=CCc2c1cccc2-c1noc(-c2ccc(OC(C)C)c(C#N)c2)n1 [compound 2] : pEC50 value = 6.83
